TGT: T1, recombinant LILRB1 (human, UniProt Q8NHL6 24-461)
T1 construct: LILRB1-Fc proteins were also made; also called LILRB1 recombinant proteins
MEASUREMENT NOTES: ELISA, coated recombinant LILRB1, antibody titration;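 further: serially diluted anti-LILRB1 antibodies incubated 60 min at 37 °C on plates coated with 50 ng/well recombinant protein, TMB colorimetric development read as absorbance at 450 nm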
EXPERIMENTAL READOUT: EC50 (µg/mL)
Express the result in µg/mL but write the number alone.

binder="B1-#74 (antibody, V domains shown, recombinant rabbit IgG) VH: QSLEESGGGLVKPGASLTLTCTASGFSLNRYYMCWVRQAPGKGLEWIGCIYSGSGSTYYASWAKGRFTISKTSSTTVTLQMTSLPAADTATYFCGRLDYRVIYAFNLWGPGTLVTISS VL: ELVLTQTPASVSAAVGGTVTINCQASQSIGSGNLAWYQQKPGQPPKLLIYLASTLASGVPPRFKGSGSGTEFTLTISDLECDDAATYYCQYTYYGTTYDNAFGGGTELEIK" reported_measurement=0.13
binder="B1-#160 (antibody, V domains shown, recombinant rabbit IgG) VH: QEQLVESGGGLVQPEGSLTLTCKASGIDFSSGYWICWVRQAPGKGLELIACIFTSSGTTYYASWAKGRFTISKTSSTTVTLQMTSLTAADTATYFCARDIYSYGMDLWGPGTLVTVSS VL: ELDLTQTPASVSAAVGGTVTIKCQASQSISSSYLAWYQQKPGQPPKLLIYSASSTASGVPSRFKGSGSGTQFTLTISDLECADAATYYCQSTYISSSKYGAVFGGGTELEIK" reported_measurement=0.0285

Task: Requested read-out: EC50. Entry: B1-#178-2 (antibody, V domains shown, recombinant rabbit IgG) VH: QKQLVESGGGLVQPEGSLALTCTASGFSFSSSYWICWVRQAPGKGLEWIACIYAGSSGSTYYASWVNGRFTVFKTSSTTVTLQMTSLTAADTATYFCARGGTSYRLDLWGPGTLVTVSS VL: ELVLTQTPSSKSVAVGDTVTINCQASDNVYSNNYTSWFQQKPGQPPKQLLYYAAYRASGVPSRFKGSGSGTEFTLSISDVVCDDAATYYCSGHKDYSDDGSTFGGGTEVEIK
Output: 0.0143
